Target: T1, Hu HER3: CD33-[Human HER3, residues 20-640]-TAG (human, UniProt P21860 20-640)
T1 construct: also called hu HER3-Tag; HER3-Tag; not shown: C-terminal TAG (e.g., FLAG TAG)
T1 sequence (P21860 20-640): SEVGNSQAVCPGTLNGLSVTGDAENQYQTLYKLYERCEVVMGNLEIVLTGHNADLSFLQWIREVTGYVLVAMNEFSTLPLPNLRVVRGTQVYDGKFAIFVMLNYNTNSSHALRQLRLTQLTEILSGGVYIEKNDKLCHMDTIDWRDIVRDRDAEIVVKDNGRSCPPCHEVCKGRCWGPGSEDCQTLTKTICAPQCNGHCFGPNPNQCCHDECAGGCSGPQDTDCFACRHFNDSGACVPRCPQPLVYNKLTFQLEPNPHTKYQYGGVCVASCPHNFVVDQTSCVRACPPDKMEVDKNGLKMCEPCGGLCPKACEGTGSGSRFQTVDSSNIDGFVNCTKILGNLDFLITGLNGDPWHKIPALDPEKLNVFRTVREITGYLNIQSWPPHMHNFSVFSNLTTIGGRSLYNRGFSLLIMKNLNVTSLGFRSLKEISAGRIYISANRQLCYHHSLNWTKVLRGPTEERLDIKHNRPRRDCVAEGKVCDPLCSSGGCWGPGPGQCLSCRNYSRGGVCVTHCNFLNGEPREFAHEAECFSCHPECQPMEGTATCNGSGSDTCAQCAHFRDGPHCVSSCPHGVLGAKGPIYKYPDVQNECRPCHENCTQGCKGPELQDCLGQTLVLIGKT
Experiment: SET, IgG vs soluble HER3-Tag
Known pKd of a selection of binders
Recall that pKd is obtained by taking minus log10 of the concentration measured in molar.

### Prompt Which pKd value is on record for MOR13756 (antibody, human IgG1, kappa, V domains shown, tested as IgG) VH: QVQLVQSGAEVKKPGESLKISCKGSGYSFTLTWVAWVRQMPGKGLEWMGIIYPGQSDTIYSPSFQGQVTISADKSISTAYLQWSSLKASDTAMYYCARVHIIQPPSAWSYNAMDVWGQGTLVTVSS VL: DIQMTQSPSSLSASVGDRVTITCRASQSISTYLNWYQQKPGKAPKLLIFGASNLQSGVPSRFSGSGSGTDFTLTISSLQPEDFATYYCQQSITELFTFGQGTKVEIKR ?
### Response 10.60
